Assay: Clinical Study 3: plasma/serum AZT by radioimmunoassay, AZT alone then AZT + inosine + INPX
Format: in vivo, AIDS patients
Details: human, plasma, po, 100 mg, mean peak plasma level of AZT, AZT alone 100 mg oral every 6 hours, day 7; standard deviation 0.70 μM, range 0.03 to 2.16 μM
Protocol: The patients were then placed on the following dosing regimen: No other drugs that are believed to affect hepatic glucuronidation were administered.

{"entry-smiles": "Cc1cn([C@H]2C[C@H](N=[N+]=[N-])[C@@H](CO)O2)c(=O)[nH]c1=O", "measurement-units": "nM", "Cmax": 1410}

###

assay: Clinical Study No. 2: plasma/serum AZT by radioimmunoassay, AZT alone then AZT + p-acetamidobenzoic acid; format: in vivo, AIDS patients; conditions: human, plasma, po, 100 mg, mean peak plasma level of AZT, 100 mg AZT with 1 gm p-acetamidobenzoic acid every 6 hrs, day 14; standard deviation 1.8 μM, range 0.16 to 4.7 μM
measure: Cmax (nM)

{"molecule": "Cc1cn([C@H]2C[C@H](N=[N+]=[N-])[C@@H](CO)O2)c(=O)[nH]c1=O [AZT, 3'-azido-3'-deoxythymidine]", "measurement-units": "nM", "numeric-value": 2450}

###

experiment: Clinical Study 3: plasma/serum AZT by radioimmunoassay, AZT alone then AZT + inosine + INPX; format: in vivo, AIDS patients; conditions: read-out: mean nadir level of AZT; AZT alone 100 mg oral every 6 hours, day 7; standard deviation 0.16 μM, range 0.06 to 0.8 μM

{"entry-smiles": "Cc1cn([C@H]2C[C@H](N=[N+]=[N-])[C@@H](CO)O2)c(=O)[nH]c1=O", "concentration": "210 nM"}

###

Assay: Clinical Study 1: plasma/serum AZT by radioimmunoassay, AZT alone then AZT + inosiplex
Format: in vivo, AIDS patients
Conditions: read-out: mean nadir level of AZT; 100 mg AZT with 1 gm INPX every 6 hrs, day 14; standard deviation 0.25 μM, range 0.15 to 0.84 μM
Method: The patients were then placed on the following dosing regimen: No other drugs that are believed to affect hepatic glucuronidation were administered.

{"entry-smiles": "Cc1cn([C@H]2C[C@H](N=[N+]=[N-])[C@@H](CO)O2)c(=O)[nH]c1=O", "concentration (nM)": 460}

###

test: Clinical Study No. 2: plasma/serum AZT by radioimmunoassay, AZT alone then AZT + p-acetamidobenzoic acid; type: in vivo, AIDS patients; settings: human, plasma, po, 100 mg, mean peak plasma level of AZT, AZT alone 100 mg oral every 6 hours, day 7; standard deviation 0.75 μM, range 0.04 to 2.46 μM

{"entry-smiles": "Cc1cn([C@H]2C[C@H](N=[N+]=[N-])[C@@H](CO)O2)c(=O)[nH]c1=O", "measurement-units": "nM", "Cmax": 1520}

###

assay: Clinical Study No. 2: plasma/serum AZT by radioimmunoassay, AZT alone then AZT + p-acetamidobenzoic acid; format: in vivo, AIDS patients; conditions: read-out: mean nadir level of AZT; 100 mg AZT with 1 gm p-acetamidobenzoic acid every 6 hrs, day 14; standard deviation 0.28 μM, range 0.14 to 0.88 μM

{"entry-smiles": "Cc1cn([C@H]2C[C@H](N=[N+]=[N-])[C@@H](CO)O2)c(=O)[nH]c1=O", "concentration": "490 nM"}

Where do these numbers come from? They come from patent US5108993A.
